Test: NCI Yeast Anticancer Drug Screen. Data for the sgs1 mgt1 strain (AID 161);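 note: 0% = growth of cultures given vehicle only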
Conditions: S. cerevisiae sgs1 mgt1 strain, at 50.0 µM, active compounds read high
Compounds without any hit were thinned out: in the full panel of roughly 79,000, 15% have a hit. Activity calls are given as the source filed them. Cut-off read from the data, not from the text of the source: active = growth inhibition above about 70%; inactive = the rest.
Readings of growth inhibition for the listed compounds

[Q] Need growth inhibition, item `Cc1ccc(OP(=O)(Oc2ccc(C)cc2)Oc2ccc(C)cc2)cc1.Cc1ccc(OP(=O)(Oc2ccc(C)cc2)Oc2ccc(C)cc2)cc1.Cc1ccc(OP(=O)(Oc2ccc(C)cc2)Oc2ccc(C)cc2)cc1.Cc1ccc(OP(=O)(Oc2ccc(C)cc2)Oc2ccc(C)cc2)cc1.[Nd+3].[O-][Cl+3]([O-])([O-])O`
[A] 37.8% (inactive)

[Q] Quick one: `O=C=Nc1ccc(Cl)cc1`
[A] -8.3% (inactive)

* * *

Readings of growth inhibition for the listed compounds
Assay: NCI Yeast Anticancer Drug Screen. Data for the mlh1 rad18 strain (AID 175)
Details: S. cerevisiae mlh1 rad18 strain growth inhibition; at 50.0 µM; active compounds read high
This is part of a sample that, as a whole, favours compounds with a hit. Of some 79,000 tested, about 15% had one in any assay. Activity calls are given as the source filed them. Rule as the data show it: active = growth inhibition above about 70%; inactive = the rest.

Reference set (5 entries):
>  <compound>
Cl.[O-]c1cccc2cccnc12.[O-]c1cccc2cccnc12.[O-]c1cccc2cccnc12.[O-]c1cccc2cccnc12.[Ti+4]

>  <result>
84.6% (active)

$$$$
>  <compound>
O=P(CCP(=O)(c1ccccc1)c1ccccc1)(c1ccccc1)c1ccccc1

>  <result>
3.75% (inactive)

$$$$
>  <compound>
COc1cc2c(cc1OC)CC[N+](C)=C2

>  <result>
2.65% (inactive)

$$$$
>  <compound>
O=[N+]([O-])c1ccc(N2CC2)c([N+](=O)[O-])c1

>  <result>
5.45% (inactive)

$$$$
>  <compound>
CN(C)c1cccc(NC2=NCCO2)c1

>  <result>
-14.6% (inactive)

$$$$

[Q] Need growth inhibition, item `[CH3][Sn]([CH3])([Br])[CH2]CCBr`
[A] 96.5% (active)

[Q] Quick one: COc1cc2c3c(c1OC)Oc1ccc(cc1)CC1c4c(cc(OC)c(OC)c4Oc4ccc(cc4)CC3N(C)CC2)CCN1C (stereo unspecified)
[A] -3.65% (inactive)

[Q] Quick one: `C[P+]1(C)CCCCC1`
[A] -17.1% (inactive)

[Q] Quick one: `O=C(Nc1c(Cl)cc([N+](=O)[O-])cc1Cl)C(=O)C1C(=O)NC(=S)NC1=O`
[A] -5.9% (inactive)

[Q] Quick one: `C(=NCCN1CCOCC1)=NC1CCCCC1`
[A] -16.1% (inactive)

[Q] Quick one: NC1CC2NC3CCCCC3NC2CC1N (stereo unspecified)
[A] 6.55% (inactive)

* * *

Readings of growth inhibition for the listed compounds
Test: NCI Yeast Anticancer Drug Screen. Data for the sgs1 mgt1 strain (AID 161);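 note: 0% = growth of cultures given vehicle only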
Conditions: S. cerevisiae sgs1 mgt1 strain, at 50.0 µM, active compounds read high
Compounds without any hit were thinned out: in the full panel of roughly 79,000, 15% have a hit.
Write the answer as a number in %, unit excluded.

Reference set (6 entries):
>  <compound>
C[C@]12CC[C@H]3[C@@H](CC=C4C=C(P(=O)(O)O)CC[C@@]43C)[C@@H]1CC[C@@H]2O

>  <growth inhibition, %>
-8.55

$$$$
>  <compound>
NC(CCSCCF)C(=O)O (configuration not stated)

>  <growth inhibition, %>
12.8

$$$$
>  <compound>
CCOC(=S)S.[Cu+2]

>  <growth inhibition, %>
-2.85

$$$$
>  <compound>
CCC(=O)NCC1CCCN2CCCCC12 (configuration not stated)

>  <growth inhibition, %>
-18.5

$$$$
>  <compound>
O=S(=O)(F)c1cccc(Cl)c1C[P+](c1ccccc1)(c1ccccc1)c1ccccc1

>  <growth inhibition, %>
13.7

$$$$
>  <compound>
CCCCOP(=S)(OCCCC)Oc1ccc(Cl)cc1Cl

>  <growth inhibition, %>
-0.55

$$$$

// switching to the query compound
[Q] Need growth inhibition, item `CSP(=S)(SC)SC(C)C`
[A] 24.1
